These measurements were taken from patent US20210380680A1.

- target_system: T1, human Claudin 18.2 (CLDN18.2) (human, UniProt P56856-2 1-261)
- T1 construct: whole, on cells; recombinantly expressed on CHO, HEK293, NCI-N87, NUGC4 or PANC-1 cells; also called CHO-CLDN18.2
- assay_method_text: FACS on CHO-CLDN18.2 cells
test_readout: pEC50
Numbers only, as −log10 of the molar value.

413H9F8-H2L3 (antibody, V domains shown, humanized IgG; constant regions not specified) VH: EVQLVESGGGLVQPGGSLRLSCAASGFTFSSFGMHWVRQAPGKGLEWVAYISSGSSPIYYVDKLKGRFTISRDNAKNSLYLQMNSLRAEDTAVYYCARAGYAVRNALDYWGQGTLVTVSS VL: DIVMTQSPDSLAVSLGERATINCKSSQSLLNVGNQKNYLAWYQQKPGQPPKLLIYGASTRESGVPDRFIGSGSGTDFTLTISSLQAEDVAVYFCQNDLFYPLTFGGGTKVEIK ... 8.60

Each of the following entries comes with a recorded value; kindly state pEC50 for each.
1. 413H9F8-VL-S32V (antibody, human IgG1, kappa, V domains shown, chimeric human IgG1, PTM site removed; also called 413H9F8-VL-32V; 413H9F8-VL-532V) VH: DVQLVESGGGSVQPGGSRRLSCAASGFTFSSFGMHWVRQAPEKGLEWVAYISSGSSPIYYVDKLKGRFTVSRDNPKNTLFLQMTSLRSEDTAMYYCARAGYAVRNALDYWGQGTSITVSS VL: DIVMTQSPSSLSVSVGEKVTLSCKSSQSLLNVGNQKNYLAWYQQKTGQPPKLLIYGASTRESGVPDRFIGSGSGTDFTLTISSVQAEDLAVYFCQNDLFYPLTFGAGTKLELKR
2. 413H9F8-H3L4 (antibody, V domains shown, humanized IgG; constant regions not specified) VH: EVQLVESGGGLVQPGGSLRLSCAASGFTFSSFGMHWVRQAPGKGLEWVAYISSGSSPIYYVDKLKGRFTVSRDNAKNSLYLQMNSLRAEDTAVYYCARAGYAVRNALDYWGQGTLVTVSS VL: DIVMTQSPDSLAVSLGERATISCKSSQSLLNVGNQKNYLAWYQQKPGQPPKLLIYGASTRESGVPDRFIGSGSGTDFTLTISSLQAEDVAVYFCQNDLFYPLTFGAGTKVEIK

a:
[8.67, 8.56]
